The reported measurements were obtained from paper PMC6001238.

The entries below are paired with their reported IC50.
tested on: Murine leukemia (L1210) cells; test: Cytostatic activity, L1210 cell proliferation; format: cell-based; conditions: mean ± SD of three experiments; highest concentration tested 250 µM; 2 days; read-out: Toxicity (IC50) L1210

{"columns": ["MOLECULE", "RELATION OPERATOR", "IC50, µM"],
 "data": [
  ["CN[C@H](CC(C)C)C(=O)N[C@H]1C(=O)N[C@@H](CC(N)=O)C(=O)N[C@H]2C(=O)N[C@H]3C(=O)N[C@H](C(=O)N[C@H](C(=O)NCCNC(=O)/C=C/c4ccc(Cl)cc4Cl)c4cc(O)cc(O)c4-c4cc3ccc4O)[C@H](O)c3ccc(c(Cl)c3)Oc3cc2cc(c3O[C@@H]2O[C@H](CO)[C@@H](O)[C@H](O)[C@H]2O[C@H]2C[C@](C)(N)[C@H](O)[C@H](C)O2)Oc2ccc(cc2Cl)[C@H]1O [Vanc-51]", "=", 80],
  ["CN[C@H](CC(C)C)C(=O)N[C@H]1C(=O)N[C@@H](CC(N)=O)C(=O)N[C@H]2C(=O)N[C@H]3C(=O)N[C@H](C(=O)N[C@H](C(=O)NCC(=O)Nc4ccc(C)cc4)c4cc(O)cc(O)c4-c4cc3ccc4O)[C@H](O)c3ccc(c(Cl)c3)Oc3cc2cc(c3O[C@@H]2O[C@H](CO)[C@@H](O)[C@H](O)[C@H]2O[C@H]2C[C@](C)(N)[C@H](O)[C@H](C)O2)Oc2ccc(cc2Cl)[C@H]1O [Vanc-4]", ">", 250],
  ["CCCCCCn1cc(-c2ccc(NC(=O)CNC(=O)C3NC(=O)C4NC(=O)C(NC(=O)C5NC(=O)C(CC(N)=O)NC(=O)C(NC(=O)C(CC(C)C)NC)C(O)c6ccc(c(Cl)c6)Oc6cc5cc(c6OC5OC(CO)C(O)C(O)C5OC5CC(C)(N)C(O)C(C)O5)Oc5ccc(cc5Cl)C4O)c4ccc(O)c(c4)-c4c(O)cc(O)cc43)cc2)nn1 (stereo not drawn) [Vanc-92]", "=", 95],
  ["CNC(CC(C)C)C(=O)NC1C(=O)NC(CC(N)=O)C(=O)NC2C(=O)NC3C(=O)NC(C(=O)NC(C(=O)NCC(=O)Nc4ccc(C=Cc5ccc(N)cc5)cc4)c4cc(O)cc(O)c4-c4cc3ccc4O)C(O)c3ccc(c(Cl)c3)Oc3cc2cc(c3OC2OC(CO)C(O)C(O)C2OC2CC(C)(N)C(O)C(C)O2)Oc2ccc(cc2Cl)C1O (stereo not drawn) [Vanc-58]", ">", 250],
  ["CNC(CC(C)C)C(=O)NC1C(=O)NC(CC(N)=O)C(=O)NC2C(=O)NC3C(=O)NC(C(=O)NC(C(=O)NCC(=O)Nc4ccc(-c5ccccc5)cc4)c4cc(O)cc(O)c4-c4cc3ccc4O)C(O)c3ccc(c(Cl)c3)Oc3cc2cc(c3OC2OC(CO)C(O)C(O)C2OC2CC(C)(N)C(O)C(C)O2)Oc2ccc(cc2Cl)C1O (stereo not drawn) [Vanc-83]", "=", 179],
  ["CCCCCCc1ccc(NC(=O)CNC(=O)[C@H]2NC(=O)[C@H]3NC(=O)[C@H](NC(=O)[C@@H]4NC(=O)[C@H](CC(N)=O)NC(=O)[C@H](NC(=O)[C@@H](CC(C)C)NC)[C@H](O)c5ccc(c(Cl)c5)Oc5cc4cc(c5O[C@@H]4O[C@H](CO)[C@@H](O)[C@H](O)[C@H]4O[C@H]4C[C@](C)(N)[C@H](O)[C@H](C)O4)Oc4ccc(cc4Cl)[C@H]3O)c3ccc(O)c(c3)-c3c(O)cc(O)cc32)cc1 [Vanc-75]", "=", 17]
]}

====

system: E. faecalis VRE 6; assay: MIC, broth microdilution, vancomycin-resistant E. faecalis VRE 6 (VanA); format: cell-based, Enterococcus faecalis; conditions: Enterococcus faecalis VRE 6 (vancomycin-resistant); read-out: MIC
The entries below are paired with their reported MIC.
REPORTED METRIC: MIC (µM)

{"columns": ["COMPOUND", "REPORTED METRIC", "NUMBER"],
 "data": [
  ["CCCCCn1cc(-c2ccc(NC(=O)CNC(=O)C3NC(=O)C4NC(=O)C(NC(=O)C5NC(=O)C(CC(N)=O)NC(=O)C(NC(=O)C(CC(C)C)NC)C(O)c6ccc(c(Cl)c6)Oc6cc5cc(c6OC5OC(CO)C(O)C(O)C5OC5CC(C)(N)C(O)C(C)O5)Oc5ccc(cc5Cl)C4O)c4ccc(O)c(c4)-c4c(O)cc(O)cc43)cc2)nn1 (centres unmarked)", "MIC", 1.56],
  ["CNC(CC(C)C)C(=O)NC1C(=O)NC(CC(N)=O)C(=O)NC2C(=O)NC3C(=O)NC(C(=O)NC(C(=O)NCC(=O)Nc4ccc(-c5cnnn5C5OC(COC(C)=O)C(OC(C)=O)C(OC(C)=O)C5OC(C)=O)cc4)c4cc(O)cc(O)c4-c4cc3ccc4O)C(O)c3ccc(c(Cl)c3)Oc3cc2cc(c3OC2OC(CO)C(O)C(O)C2OC2CC(C)(N)C(O)C(C)O2)Oc2ccc(cc2Cl)C1O (centres unmarked)", "MIC", 3.13],
  ["CN[C@H](CC(C)C)C(=O)N[C@H]1C(=O)N[C@@H](CC(N)=O)C(=O)N[C@H]2C(=O)N[C@H]3C(=O)N[C@H](C(=O)N[C@H](C(=O)NCC(=O)Nc4ccc(F)cc4F)c4cc(O)cc(O)c4-c4cc3ccc4O)[C@H](O)c3ccc(c(Cl)c3)Oc3cc2cc(c3O[C@@H]2O[C@H](CO)[C@@H](O)[C@H](O)[C@H]2O[C@H]2C[C@](C)(N)[C@H](O)[C@H](C)O2)Oc2ccc(cc2Cl)[C@H]1O", "MIC", 12.5],
  ["CCCCCc1ccc(NC(=O)CNC(=O)[C@H]2NC(=O)[C@H]3NC(=O)[C@H](NC(=O)[C@@H]4NC(=O)[C@H](CC(N)=O)NC(=O)[C@H](NC(=O)[C@@H](CC(C)C)NC)[C@H](O)c5ccc(c(Cl)c5)Oc5cc4cc(c5O[C@@H]4O[C@H](CO)[C@@H](O)[C@H](O)[C@H]4O[C@H]4C[C@](C)(N)[C@H](O)[C@H](C)O4)Oc4ccc(cc4Cl)[C@H]3O)c3ccc(O)c(c3)-c3c(O)cc(O)cc32)cc1", "MIC", 1.56],
  ["CN[C@H](CC(C)C)C(=O)N[C@H]1C(=O)N[C@@H](CC(N)=O)C(=O)N[C@H]2C(=O)N[C@H]3C(=O)N[C@H](C(=O)N[C@H](C(=O)NCC(=O)Nc4ccc(-c5cn(-c6ccccc6)nn5)cc4)c4cc(O)cc(O)c4-c4cc3ccc4O)[C@H](O)c3ccc(c(Cl)c3)Oc3cc2cc(c3O[C@@H]2O[C@H](CO)[C@@H](O)[C@H](O)[C@H]2O[C@H]2C[C@](C)(N)[C@H](O)[C@H](C)O2)Oc2ccc(cc2Cl)[C@H]1O", "MIC", 1.56],
  ["CN[C@H](CC(C)C)C(=O)N[C@H]1C(=O)N[C@@H](CC(N)=O)C(=O)N[C@H]2C(=O)N[C@H]3C(=O)N[C@H](C(=O)N[C@H](C(=O)NCCNC(=O)/C=C/c4ccc(NS(=O)(=O)c5ccccc5)cc4)c4cc(O)cc(O)c4-c4cc3ccc4O)[C@H](O)c3ccc(c(Cl)c3)Oc3cc2cc(c3O[C@@H]2O[C@H](CO)[C@@H](O)[C@H](O)[C@H]2O[C@H]2C[C@](C)(N)[C@H](O)[C@H](C)O2)Oc2ccc(cc2Cl)[C@H]1O", "MIC", 12.5],
  ["CNC(CC(C)C)C(=O)NC1C(=O)NC(CC(N)=O)C(=O)NC2C(=O)NC3C(=O)NC(C(=O)NC(C(=O)NCCCNC(=O)c4ccc5ccccc5n4)c4cc(O)cc(O)c4-c4cc3ccc4O)C(O)c3ccc(c(Cl)c3)Oc3cc2cc(c3OC2OC(CO)C(O)C(O)C2OC2CC(C)(N)C(O)C(C)O2)Oc2ccc(cc2Cl)C1O (centres unmarked)", "MIC", 3.13],
  ["CNC(CC(C)C)C(=O)NC1C(=O)NC(CC(N)=O)C(=O)NC2C(=O)NC3C(=O)NC(C(=O)NC(C(=O)NCC(=O)Nc4ccc5c(c4)C(=O)c4ccccc4-5)c4cc(O)cc(O)c4-c4cc3ccc4O)C(O)c3ccc(c(Cl)c3)Oc3cc2cc(c3OC2OC(CO)C(O)C(O)C2OC2CC(C)(N)C(O)C(C)O2)Oc2ccc(cc2Cl)C1O (centres unmarked)", "MIC", 3.13],
  ["CNC(CC(C)C)C(=O)NC1C(=O)NC(CC(N)=O)C(=O)NC2C(=O)NC3C(=O)NC(C(=O)NC(C(=O)NCCCNC(=O)c4cc5ccccc5o4)c4cc(O)cc(O)c4-c4cc3ccc4O)C(O)c3ccc(c(Cl)c3)Oc3cc2cc(c3OC2OC(CO)C(O)C(O)C2OC2CC(C)(N)C(O)C(C)O2)Oc2ccc(cc2Cl)C1O (centres unmarked)", "MIC", 0.78],
  ["CN[C@H](CC(C)C)C(=O)N[C@H]1C(=O)N[C@@H](CC(N)=O)C(=O)N[C@H]2C(=O)N[C@H]3C(=O)N[C@H](C(=O)N[C@H](C(=O)NCC(=O)Nc4c(C)cc(C)cc4C)c4cc(O)cc(O)c4-c4cc3ccc4O)[C@H](O)c3ccc(c(Cl)c3)Oc3cc2cc(c3O[C@@H]2O[C@H](CO)[C@@H](O)[C@H](O)[C@H]2O[C@H]2C[C@](C)(N)[C@H](O)[C@H](C)O2)Oc2ccc(cc2Cl)[C@H]1O", "MIC", 6.25],
  ["CNC(CC(C)C)C(=O)NC1C(=O)NC(CC(N)=O)C(=O)NC2C(=O)NC3C(=O)NC(C(=O)NC(C(=O)NCC(=O)Nc4ccc(C=Cc5ccc(N)cc5)cc4)c4cc(O)cc(O)c4-c4cc3ccc4O)C(O)c3ccc(c(Cl)c3)Oc3cc2cc(c3OC2OC(CO)C(O)C(O)C2OC2CC(C)(N)C(O)C(C)O2)Oc2ccc(cc2Cl)C1O (centres unmarked)", "MIC", 6.25]
]}
